# credit: paper PMC6273687

Test system: NCI-H460 lung carcinoma cell line
Assay: Growth inhibition of tumor cell lines in vitro (MTT / cell counting)
Assay type: cell-based, human
Settings: Homo sapiens, 72 h; NCI-H460, 3 days
Method: The experiments were carried out on a murine lymphocytic leukemia cell line (L1210) and five human tumor cell lines: CEM, HeLa, NCI-H460, SW 620 and MCF-7. […] The growth inhibition activity of the compounds was assessed as described previously. […] After 3 (MCF-7, SW 620, NCI-H460) or 4 days (CEM, L1210), the cell growth rate was evaluated first light microscopically, then by viable cell counting and/or by performing the MTT assay, which detects dehydrogenase activity in live, not dead, cells. […]
observable: IC50 (µM)
Kindly answer with a numeric value in µM, unit omitted.

| molecule | IC50, µM |
| --- | --- |
| COc1cc(NC(C)CCCNC(=O)NNC(=O)/C=C/c2ccccc2F)c2ncccc2c1 (stereo not drawn) | 12 |
| COc1cc(NC(C)CCCNC(=O)NNC(=O)/C=C/c2ccc(C(F)(F)F)cc2)c2ncccc2c1 (stereo not drawn) | 34 |
| COc1cc(NC(C)CCCNC(=O)NNC(=O)/C=C/c2ccc(OC)c(OC)c2)c2ncccc2c1 (stereo not drawn) | 32 |
| COc1cc(NC(C)CCCNC(=O)NNC(=O)/C=C/c2cccc(C(F)(F)F)c2)c2ncccc2c1 (stereo not drawn) | 18 |
| COc1cc(NC(C)CCCNC(=O)NNC(=O)/C(C)=C/c2ccccc2)c2ncccc2c1 (stereo not drawn) | 50 |

Exam item: Given the entry COc1cc(NC(C)CCCN)c2ncccc2c1 (stereo not drawn) , what IC50 was observed with NCI-H460 lung carcinoma cell line?
Marked response: 30

Exam item: Try this molecule too: COc1cc(NC(C)CCCNC(=O)NNC(=O)/C=C/c2ccc(Cl)cc2)c2ncccc2c1 (stereo not drawn)
Marked response: 20

Exam item: Same question, COc1cc(NC(C)CCCNC(=O)NNC(=O)/C=C/c2cc(C(F)(F)F)cc(C(F)(F)F)c2)c2ncccc2c1 (stereo not drawn) this time
Marked response: 48
